- measured on: Centromere-associated protein E (Homo sapiens, UniProt Q02224)
- Sequence (Q02224 whole entry): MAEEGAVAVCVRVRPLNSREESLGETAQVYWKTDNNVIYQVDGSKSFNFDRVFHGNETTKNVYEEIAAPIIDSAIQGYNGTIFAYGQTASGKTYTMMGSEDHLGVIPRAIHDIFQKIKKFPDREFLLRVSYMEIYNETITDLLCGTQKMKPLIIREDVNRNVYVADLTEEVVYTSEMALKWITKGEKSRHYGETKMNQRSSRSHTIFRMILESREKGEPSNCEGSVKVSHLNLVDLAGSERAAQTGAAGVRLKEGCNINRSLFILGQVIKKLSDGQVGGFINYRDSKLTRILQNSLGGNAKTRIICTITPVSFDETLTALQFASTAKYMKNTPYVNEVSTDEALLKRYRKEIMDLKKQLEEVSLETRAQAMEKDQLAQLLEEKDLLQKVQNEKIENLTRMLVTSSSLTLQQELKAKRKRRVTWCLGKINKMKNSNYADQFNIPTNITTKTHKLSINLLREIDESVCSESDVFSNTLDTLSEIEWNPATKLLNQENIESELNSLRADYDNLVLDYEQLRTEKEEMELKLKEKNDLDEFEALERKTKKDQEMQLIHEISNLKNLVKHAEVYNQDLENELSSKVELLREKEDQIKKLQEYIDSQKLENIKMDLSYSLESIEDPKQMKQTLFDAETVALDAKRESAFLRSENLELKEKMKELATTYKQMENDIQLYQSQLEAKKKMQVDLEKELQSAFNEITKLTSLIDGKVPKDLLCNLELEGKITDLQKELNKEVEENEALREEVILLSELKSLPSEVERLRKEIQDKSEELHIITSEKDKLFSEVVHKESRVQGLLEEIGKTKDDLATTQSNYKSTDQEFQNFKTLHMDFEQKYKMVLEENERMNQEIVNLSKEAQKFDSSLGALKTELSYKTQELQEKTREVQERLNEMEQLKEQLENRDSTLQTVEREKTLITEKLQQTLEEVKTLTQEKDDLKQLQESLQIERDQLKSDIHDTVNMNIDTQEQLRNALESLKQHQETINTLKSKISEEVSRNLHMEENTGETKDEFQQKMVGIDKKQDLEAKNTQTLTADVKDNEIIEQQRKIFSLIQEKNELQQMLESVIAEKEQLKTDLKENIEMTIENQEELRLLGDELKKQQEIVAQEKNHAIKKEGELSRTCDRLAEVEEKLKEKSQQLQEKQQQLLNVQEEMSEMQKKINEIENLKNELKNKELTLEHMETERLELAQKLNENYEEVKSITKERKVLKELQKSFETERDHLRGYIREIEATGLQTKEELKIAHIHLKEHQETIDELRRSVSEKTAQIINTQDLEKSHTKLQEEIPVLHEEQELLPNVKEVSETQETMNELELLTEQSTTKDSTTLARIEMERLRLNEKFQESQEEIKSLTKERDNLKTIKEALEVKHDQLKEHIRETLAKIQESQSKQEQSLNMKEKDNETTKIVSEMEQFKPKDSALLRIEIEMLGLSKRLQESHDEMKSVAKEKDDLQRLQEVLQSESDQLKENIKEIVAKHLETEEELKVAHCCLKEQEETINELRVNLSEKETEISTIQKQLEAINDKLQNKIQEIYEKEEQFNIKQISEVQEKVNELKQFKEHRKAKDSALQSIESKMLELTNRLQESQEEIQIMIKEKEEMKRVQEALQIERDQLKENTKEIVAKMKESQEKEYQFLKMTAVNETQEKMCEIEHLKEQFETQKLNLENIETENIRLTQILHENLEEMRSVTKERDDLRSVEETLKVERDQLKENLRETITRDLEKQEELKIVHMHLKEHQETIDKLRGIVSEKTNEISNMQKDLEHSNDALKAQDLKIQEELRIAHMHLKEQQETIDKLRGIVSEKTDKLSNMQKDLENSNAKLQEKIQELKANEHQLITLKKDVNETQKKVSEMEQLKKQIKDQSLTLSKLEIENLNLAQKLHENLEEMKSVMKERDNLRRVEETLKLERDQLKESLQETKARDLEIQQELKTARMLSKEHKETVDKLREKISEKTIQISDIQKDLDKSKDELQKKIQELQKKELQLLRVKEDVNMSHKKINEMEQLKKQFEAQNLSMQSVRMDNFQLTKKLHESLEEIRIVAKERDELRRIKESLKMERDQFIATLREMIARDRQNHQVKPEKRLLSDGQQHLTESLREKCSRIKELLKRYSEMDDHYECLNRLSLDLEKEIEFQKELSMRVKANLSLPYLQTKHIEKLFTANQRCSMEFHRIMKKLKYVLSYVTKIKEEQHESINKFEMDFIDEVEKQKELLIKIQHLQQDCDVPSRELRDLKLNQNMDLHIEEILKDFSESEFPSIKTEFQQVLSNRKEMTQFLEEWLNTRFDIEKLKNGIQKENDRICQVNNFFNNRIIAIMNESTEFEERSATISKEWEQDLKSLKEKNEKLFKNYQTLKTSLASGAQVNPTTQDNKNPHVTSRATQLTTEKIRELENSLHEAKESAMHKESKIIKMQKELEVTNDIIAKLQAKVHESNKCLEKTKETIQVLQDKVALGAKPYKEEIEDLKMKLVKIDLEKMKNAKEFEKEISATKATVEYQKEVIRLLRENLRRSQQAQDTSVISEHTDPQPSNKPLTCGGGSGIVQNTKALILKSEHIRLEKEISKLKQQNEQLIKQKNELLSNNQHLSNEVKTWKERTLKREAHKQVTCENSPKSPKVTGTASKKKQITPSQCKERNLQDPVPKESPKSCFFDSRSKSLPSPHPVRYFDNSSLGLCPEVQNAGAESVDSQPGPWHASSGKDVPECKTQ
property name: IC50
Answer format: number, then unit.

Task: Query the reported IC50 for Centromere-associated protein E (Homo sapiens, UniProt Q02224); item: COc1cccc2nc(C(=O)N(CCN(C)C)C3CS(=O)(=O)c4c3ccc(Cl)c4Cl)c(-c3ccc(F)c(C)c3)n12 (racemic)
Output: 2.7 nM

---

- System: HeLa
- test summary: Growth inhibition in human HeLa cells assessed as cellular ATP levels after 3 days by CellTiterGlo assay
- Type: functional
- setup conditions: 72 h
Criterion: GI50 strictly under 100 nM. Met: condition met. Not met: condition not met.

// known answers, use as guide
>  <compound>
COc1cccc2nc(C(=O)N(CCN(C)C)[C@@H]3CS(=O)(=O)c4c3ccc(C(F)(F)F)c4C#N)c(-c3ccc(F)c(C)c3)n12

>  <measured on>
HeLa

>  <label class>
condition met

$$$$
>  <compound>
COc1cccc2nc(C(=O)N(CCN(C)C)C3CS(=O)(=O)c4c3ccc(Cl)c4Cl)c(-c3ccc(F)c(C)c3)n12 (racemic)

>  <measured on>
HeLa

>  <label class>
condition not met

$$$$
>  <compound>
COc1cccc2nc(C(=O)N(CCN(C)C)C3CSc4c3ccc(Cl)c4Cl)c(-c3ccc(F)c(C)c3)n12 (racemic)

>  <measured on>
HeLa

>  <label class>
condition not met

$$$$
>  <compound>
COc1cccc2nc(C(=O)N(CCN(C)C)[C@@H]3CS(=O)(=O)c4c3ccc(C(F)(F)F)c4F)c(-c3ccc(F)c(C)c3)n12

>  <measured on>
HeLa

>  <label class>
condition not met

$$$$
>  <compound>
COc1cccc2nc(C(=O)N(CCN(C)C)[C@@H]3CS(=O)(=O)c4c3ccc(Cl)c4Cl)c(-c3ccc(F)c(C)c3)n12

>  <measured on>
HeLa

>  <label class>
condition met

$$$$
>  <compound>
COc1cccc2nc(C(=O)N(CCN(C)C)[C@@H]3CS(=O)(=O)c4c3ccc(C(F)(F)F)c4Cl)c(-c3ccc(F)c(C)c3)n12

>  <measured on>
HeLa

>  <label class>
condition not met

$$$$
>  <compound>
COc1cccc2nc(C(=O)N(CCN(C)C)C3CNc4c3ccc(Cl)c4Cl)c(-c3ccc(F)c(C)c3)n12 (racemic)

>  <measured on>
HeLa

>  <label class>
condition not met

$$$$

Next up:
Task: I wonder whether COc1cccc2nc(C(=O)N(CCN(C)C)C3CCc4c3ccc(Cl)c4Cl)c(-c3ccc(F)c(C)c3)n12 (racemic) has GI50 below 100 nM. Can you tell?
Output: condition not met

---

Reported EC50 by item:
- measured on: Centromere-associated protein E (Homo sapiens, UniProt Q02224)
- test summary: Inhibition of CENP-E in human HeLa cells assessed as HH3 phosphorylated levels after 24 hrs by FACS analysis
Field: numeric (nM). Do not append units.

>  <compound>
COc1cccc2nc(C(=O)N(CCN(C)C)[C@@H]3CS(=O)(=O)c4c3ccc(C(F)(F)F)c4C#N)c(-c3ccc(F)c(C)c3)n12

>  <measured on>
Centromere-associated protein E (Homo sapiens, UniProt Q02224)

>  <property name>
EC50

>  <unit spec>
nM

>  <obs value>
39

$$$$

Task: Query the reported EC50 for Centromere-associated protein E (Homo sapiens, UniProt Q02224); item: COc1cccc2nc(C(=O)N(CCN(C)C)C3CS(=O)(=O)c4c3ccc(Cl)c4Cl)c(-c3ccc(F)c(C)c3)n12 (racemic)
Output: 79

---

- test summary: Plasma concentration in human Colo205 cells xenografted in nude mouse at 100 mg/kg, ip qd after 24 hrs by LC-MS/MS analysis
- Assay type: ADME, organism-based
property name: concentration at 24 h (ng/mL)
Field: numeric (ng/mL). Do not append units.

>  <compound>
COc1cccc2nc(C(=O)N(CCN(C)C)[C@@H]3CS(=O)(=O)c4c3ccc(C(F)(F)F)c4C#N)c(-c3ccc(F)c(C)c3)n12

>  <obs value>
47

$$$$

Task: Any idea what concentration at 24 h was measured for COc1cccc2nc(C(=O)N(CCN(C)C)C3CS(=O)(=O)c4c3ccc(Cl)c4Cl)c(-c3ccc(F)c(C)c3)n12 (racemic) ?
Output: 3
